Record form. Attribute: Phytotoxicity %. Fill in for each entry.
- System: wheat (variety: Norin No.61)
- PROTOCOL DESCRIPTION: Test for safening effect against phytotoxicity of herbicidal compounds against wheat
- Format: in vivo
- CONDITION DETAILS: wheat seeds in dish, after 5 days; safener 50 ppm + H-1 10 ppm
Report as a plain number; the unit % is understood.

Report measured Phytotoxicity %; entry is CCC(C)c1ccc(NC(=O)c2snc(Cl)c2Cl)cc1 (stereo not shown) [No. I-4] 5

Report measured Phytotoxicity %; entry is CCN(CC)Cc1ccc(CNC(=O)c2snc(Cl)c2Cl)cc1 [No. I-6] 15

Report measured Phytotoxicity %; entry is CCC(CC)c1ccc(NC(=O)c2snc(Cl)c2Cl)cc1 [No. I-5] 10

Report measured Phytotoxicity %; entry is CN(C)CNC(=O)c1snc(Cl)c1Cl [No. I-3] 0

Report measured Phytotoxicity %; entry is N#Cc1ccccc1NC(=O)c1snc(Cl)c1Cl [No. I-1] 20

Report measured Phytotoxicity %; entry is Cc1ccc(NC(=O)c2snc(Cl)c2Cl)c(C)c1 [No. I-2] 10

Report measured Phytotoxicity %; entry is CC(C)(C)CSCc1ccc(NC(=O)c2snc(Cl)c2Cl)cc1 [No. I-7] 20

====

Record form. Attribute: Phytotoxicity %. Fill in for each entry.
- Test system: wheat (variety: Norin No.61)
- PROTOCOL DESCRIPTION: Test for safening effect against phytotoxicity of herbicidal compounds against wheat
- Type: in vivo
- CONDITION DETAILS: wheat seeds in dish, after 5 days; safener 10 ppm + H-1 10 ppm
A bare number is not enough; add the unit after it.

Provide Phytotoxicity %, system wheat (variety: Norin No.61), entry CCC(C)c1ccc(NC(=O)c2snc(Cl)c2Cl)cc1 (stereo not shown) 10%

Provide Phytotoxicity %, system wheat (variety: Norin No.61), entry CCN(CC)Cc1ccc(CNC(=O)c2snc(Cl)c2Cl)cc1 15%

Provide Phytotoxicity %, system wheat (variety: Norin No.61), entry N#Cc1ccccc1NC(=O)c1snc(Cl)c1Cl 20%

Provide Phytotoxicity %, system wheat (variety: Norin No.61), entry Cc1ccc(NC(=O)c2snc(Cl)c2Cl)c(C)c1 30%

Provide Phytotoxicity %, system wheat (variety: Norin No.61), entry CN(C)CNC(=O)c1snc(Cl)c1Cl 5%

Provide Phytotoxicity %, system wheat (variety: Norin No.61), entry CC(C)(C)CSCc1ccc(NC(=O)c2snc(Cl)c2Cl)cc1 30%

Provide Phytotoxicity %, system wheat (variety: Norin No.61), entry CCC(CC)c1ccc(NC(=O)c2snc(Cl)c2Cl)cc1 30%
